Origin of measurements: ChEMBL document CHEMBL4368909

I'd be grateful if you could share measured CC50 for these entries.
# Tested on: TZM
# Procedure Summary: Cytotoxicity against human TZM-bl cells after 4 days by XTT assay
# Type: cell-based
# Assay Conditions: 96 h

# lookup: CC50 of `Cc1cc(C#N)cc(C)c1Oc1nc(NC2CN(Cc3cccc(C(N)=O)c3)C2)nc2ccsc12`
> 257 nM

# lookup: CC50 of Cc1cc(C#N)cc(C)c1Oc1nc(NC2CC3CCC(C2)N3Cc2ccncc2)nc2ccsc12 (configuration not stated)
> 251 nM

# lookup: CC50 of Cc1cc(C#N)cc(C)c1Oc1nc(NC2CC3CCC(C2)N3Cc2ccc(C(N)=O)cc2)nc2ccsc12 (configuration not stated)
> 232 nM

# lookup: CC50 of Cc1cc(C#N)cc(C)c1Oc1nc(NC2CCCN(Cc3ccncc3)CC2)nc2ccsc12 (configuration not stated)
> 257 nM

# lookup: CC50 of Cc1cc(C#N)cc(C)c1Oc1nc(NC2CC3CCC(C2)N3Cc2ccc(S(C)(=O)=O)cc2)nc2ccsc12 (configuration not stated)
> 217 nM

# lookup: CC50 of `Cc1cc(C#N)cc(C)c1Oc1nc(NC2CCN(Cc3ccc(S(N)(=O)=O)cc3)CC2)nc2ccsc12`
> 227 nM

# lookup: CC50 of `Cc1cc(C#N)cc(C)c1Oc1nc(N[C@H]2CCN(Cc3cccc(C(N)=O)c3)C2)nc2ccsc12`
> 250 nM

# lookup: CC50 of `Cc1cc(C#N)cc(C)c1Oc1nc(NC2CN(Cc3ccc(S(N)(=O)=O)cc3)C2)nc2ccsc12`
> 240 nM

# lookup: CC50 of `Cc1cc(C#N)cc(C)c1Oc1nc(N[C@H]2CCN(Cc3ccc(C(N)=O)cc3)C2)nc2ccsc12`
> 250 nM

# lookup: CC50 of `Cc1cc(C#N)cc(C)c1Oc1nc(N[C@H]2CCN(Cc3ccc(S(C)(=O)=O)cc3)C2)nc2ccsc12`
> 234 nM

# lookup: CC50 of `Cc1cc(C#N)cc(C)c1Oc1nc(N[C@@H]2CCN(Cc3ccc(S(N)(=O)=O)cc3)C2)nc2ccsc12`
> 233 nM

# lookup: CC50 of Cc1cc(C#N)cc(C)c1Oc1nc(NC2CCCN(Cc3ccc(C(N)=O)cc3)CC2)nc2ccsc12 (configuration not stated)
> 237 nM

* * *

# Procedure Summary: Selectivity ratio of CC50 for human MT4 cells to EC50 for HIV1 RES056 infected in human MT4 cells
# Format: toxicity, cell-based
# Assay Conditions: read-out: Ratio CC50/EC50
Parameter: selectivity ratio
Form rule: numeric answer, no unit written next to it.

# lookup: selectivity ratio of `Cc1cc(C#N)cc(C)c1Oc1nc(NC2CCN(Cc3ccc(S(C)(=O)=O)cc3)CC2)nc2c1CSC2`
259

# lookup: selectivity ratio of `Cc1cc(C#N)cc(C)c1Oc1nc(NC2CCN(Cc3ccc(S(N)(=O)=O)cc3)CC2)nc2c1COC2`
725

# lookup: selectivity ratio of `Cc1cc(C#N)cc(C)c1Oc1nc(NC2CCN(Cc3cccc(C(N)=O)c3)CC2)nc2c1CCCC2`
50

# lookup: selectivity ratio of `Cc1cc(C#N)cc(C)c1Oc1nc(NC2CCN(Cc3cccc(C(N)=O)c3)CC2)nc2c1CCC2`
9

# lookup: selectivity ratio of `Cc1cc(C#N)cc(C)c1Oc1nc(NC2CCN(Cc3ccc([N+](=O)[O-])cc3)CC2)nc2c1CCC2`
9

# lookup: selectivity ratio of `Cc1cc(C#N)cc(C)c1Oc1nc(NC2CCN(Cc3ccc([N+](=O)[O-])cc3)CC2)nc2c1SCCC2`
6.6

# lookup: selectivity ratio of `Cc1cc(C#N)cc(C)c1Oc1nc(NC2CCN(Cc3ccc(S(C)(=O)=O)cc3)CC2)nc2c1COC2`
752

# lookup: selectivity ratio of `Cc1cc(C#N)cc(C)c1Oc1nc(NC2CCN(Cc3ccncc3)CC2)nc2c1COC2`
871

* * *

# Procedure Summary: AUC (0 to infinity) in Wistar rat at 2 mg/kg, iv by LC-MS/MS analysis
# Type: ADME, organism-based
# Set-up: dose 2 mg/kg, time infinity, route intravenous
# Assay Conditions: in vivo
Parameter: AUC(0-inf) (ng·h/mL)
Write the value in ng·h/mL as a bare number.

# lookup: AUC(0-inf) of `Cc1cc(C#N)cc(C)c1Oc1nc(NC2CCN(Cc3ccc(C(N)=O)cc3)CC2)nc2c1COC2`
543

* * *

# Procedure Summary: Selectivity ratio of CC50 for human TZM-bl cells to EC50 for HIV1 NL4-3 infected in human TZM-bl cells
# Type: toxicity, cell-based
# Assay Conditions: read-out: Ratio CC50/EC50
I'd be grateful if you could share measured selectivity ratio for these entries.

# lookup: selectivity ratio of Cc1cc(C#N)cc(C)c1Oc1nc(NC2CC3CCC(C2)N3Cc2ccc(S(N)(=O)=O)cc2)nc2ccsc12 (centres undefined)
1

# lookup: selectivity ratio of `Cc1cc(C#N)cc(C)c1Oc1nc(N[C@@H]2CCN(Cc3ccc(S(N)(=O)=O)cc3)C2)nc2ccsc12`
26

# lookup: selectivity ratio of `Cc1cc(C#N)cc(C)c1Oc1nc(N[C@@H]2CCN(Cc3cccc(C(N)=O)c3)C2)nc2ccsc12`
6

# lookup: selectivity ratio of `Cc1cc(C#N)cc(C)c1Oc1nc(N[C@@H]2CCN(Cc3ccc(C(N)=O)cc3)C2)nc2ccsc12`
24

# lookup: selectivity ratio of Cc1cc(C#N)cc(C)c1Oc1nc(NC2CCCN(Cc3cccc(C(N)=O)c3)CC2)nc2ccsc12 (centres undefined)
23

# lookup: selectivity ratio of `Cc1cc(C#N)cc(C)c1Oc1nc(N[C@H]2CCN(Cc3ccc(S(C)(=O)=O)cc3)C2)nc2ccsc12`
4.6

# lookup: selectivity ratio of `Cc1cc(C#N)cc(C)c1Oc1nc(N[C@@H]2CCN(Cc3ccncc3)C2)nc2ccsc12`
17

# lookup: selectivity ratio of `Cc1cc(C#N)cc(C)c1Oc1nc(N[C@H]2CCN(Cc3ccncc3)C2)nc2ccsc12`
16

# lookup: selectivity ratio of `Cc1cc(C#N)cc(C)c1Oc1nc(NC2CN(Cc3ccncc3)C2)nc2ccsc12`
128

* * *

pIC50: −log10 of the molar value.
Parameter: pIC50

Tell me reported pIC50 for `Cc1cc(C#N)cc(C)c1Oc1nc(NC2CCN(Cc3ccc(C(N)=O)cc3)CC2)nc2c1COC2` , tested with Cytochrome P450 2D6 (Homo sapiens, UniProt P10635).
Sequence (P10635 whole entry): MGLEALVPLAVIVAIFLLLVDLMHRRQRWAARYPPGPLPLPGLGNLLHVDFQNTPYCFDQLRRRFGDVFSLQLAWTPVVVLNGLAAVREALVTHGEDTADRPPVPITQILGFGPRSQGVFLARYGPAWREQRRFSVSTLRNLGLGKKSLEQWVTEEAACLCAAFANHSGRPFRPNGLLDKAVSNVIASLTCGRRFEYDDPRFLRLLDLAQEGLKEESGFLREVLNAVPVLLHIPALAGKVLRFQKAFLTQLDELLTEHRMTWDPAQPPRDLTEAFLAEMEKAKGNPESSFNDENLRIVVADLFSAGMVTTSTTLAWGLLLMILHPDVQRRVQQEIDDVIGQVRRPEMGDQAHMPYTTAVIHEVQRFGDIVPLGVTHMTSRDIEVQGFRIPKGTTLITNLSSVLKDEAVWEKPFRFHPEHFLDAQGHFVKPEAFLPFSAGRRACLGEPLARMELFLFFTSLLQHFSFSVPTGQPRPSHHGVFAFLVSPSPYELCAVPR
< 4.30

* * *

# Procedure Summary: Selectivity ratio of CC50 for human MT4 cells to EC50 for HIV1 harboring reverse transcriptase K103N mutant infected in human MT4 cells
# Format: toxicity, cell-based
# Assay Conditions: read-out: Ratio CC50/EC50
Binary call on selectivity ratio: TRUE from 20000 upward, FALSE beneath that.

Reported selectivity ratio at or above 20000? `Cc1cc(C#N)cc(C)c1Oc1nc(NC2CCN(Cc3ccncc3)CC2)nc2c1COC2`
TRUE

Reported selectivity ratio at or above 20000? `Cc1cc(C#N)cc(C)c1Oc1nc(NC2CCN(Cc3ccc(S(N)(=O)=O)cc3)CC2)nc2c1COC2`
FALSE

Reported selectivity ratio at or above 20000? `Cc1cc(C#N)cc(C)c1Oc1nc(NC2CCN(Cc3ccc(S(C)(=O)=O)cc3)CC2)nc2c1COC2`
FALSE

Reported selectivity ratio at or above 20000? `Cc1cc(C#N)cc(C)c1Oc1nc(NC2CCN(Cc3ccc(S(N)(=O)=O)cc3)CC2)nc2c1SCC2`
FALSE

Reported selectivity ratio at or above 20000? `Cc1cc(C#N)cc(C)c1Oc1nc(NC2CCN(Cc3ccc(C(N)=O)cc3)CC2)nc2c1SCC2`
TRUE

* * *

# Procedure Summary: Selectivity ratio of CC50 for human TZM-bl cells to EC50 for HIV1 NL4-3 infected in human TZM-bl cells
# Assay type: toxicity, cell-based
# Assay Conditions: read-out: Ratio CC50/EC50
I'd be grateful if you could share measured selectivity ratio for these entries.

# lookup: selectivity ratio of `Cc1cc(C#N)cc(C)c1Oc1nc(NC2CN(Cc3cccc(C(N)=O)c3)C2)nc2ccsc12`
29

# lookup: selectivity ratio of `Cc1cc(C#N)cc(C)c1Oc1nc(N[C@H]2CCN(Cc3ccc(S(N)(=O)=O)cc3)C2)nc2ccsc12`
2.2

# lookup: selectivity ratio of `Cc1cc(C#N)cc(C)c1Oc1nc(N[C@H]2CCN(Cc3cccc(C(N)=O)c3)C2)nc2ccsc12`
1

* * *

# Procedure Summary: Tmax in Wistar rat at 2 mg/kg, iv by LC-MS/MS analysis
# Format: ADME, organism-based
# Assay Conditions: in vivo
Parameter: Tmax (min)
Write the value in min as a bare number.

# lookup: Tmax of `Cc1cc(C#N)cc(C)c1Oc1nc(NC2CCN(Cc3ccc(C(N)=O)cc3)CC2)nc2c1COC2`
1.98
